# EXPERIMENTAL TARGET: Procathepsin L (Homo sapiens, UniProt P07711)
# Sequence (P07711 whole entry): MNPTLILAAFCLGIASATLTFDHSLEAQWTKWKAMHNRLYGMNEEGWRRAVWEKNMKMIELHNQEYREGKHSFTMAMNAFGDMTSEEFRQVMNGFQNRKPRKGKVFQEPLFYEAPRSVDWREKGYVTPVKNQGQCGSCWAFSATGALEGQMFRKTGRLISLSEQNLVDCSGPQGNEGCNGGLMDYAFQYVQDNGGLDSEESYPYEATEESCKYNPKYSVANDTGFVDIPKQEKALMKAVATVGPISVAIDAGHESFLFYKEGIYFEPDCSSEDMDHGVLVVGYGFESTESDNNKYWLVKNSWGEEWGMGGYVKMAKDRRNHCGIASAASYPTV
# ASSAY SUMMARY: Inhibition of human Cathepsin L by fluorescence assay based Cheng-Prusoff equation analysis
ASSAY ENDPOINT: Ki (nM)

| SMILES CODE | EXPERIMENTAL TARGET | ASSAY ENDPOINT | ASSAY RESULT |
| --- | --- | --- | --- |
| N#Cc1ncc(F)c(N(Cc2ccc3c(c2)OCO3)[C@H]2CC[C@@H](C(F)(F)F)CC2)n1 | Procathepsin L (Homo sapiens, UniProt P07711) | Ki | 3500 |

1 = Cc1nc2n(c(=O)c1CCN(Cc1ccc3c(c1)OCO3)c1nc(C#N)ncc1F)CCCC2
2 = N#Cc1ncc(F)c(N(Cc2ccc3c(c2)OCO3)C2CCSCC2)n1
3 = CC(C)[C@H]1CC[C@@H](N(Cc2ccc3c(c2)OCO3)c2nc(C#N)ncc2F)CC1
4 = N#Cc1ncc(F)c(N(CCC(F)(F)F)Cc2ccc3c(c2)OCO3)n1
5 = N#Cc1ncc(F)c(N(CCc2ccccc2)Cc2ccc3c(c2)OCO3)n1
Ascending sort, Ki. Returns: the labels listed in the requested order. 4, 5, 2, 1, 3

A = N#Cc1ncc(F)c(N(CCOc2ccccc2)Cc2ccc3c(c2)OCO3)n1
B = Cc1cc(OCCN(Cc2ccc3c(c2)OCO3)c2nc(C#N)ncc2F)cc(C)c1Cl
C = N#Cc1ncc(F)c(N(CCc2ccncc2)Cc2ccc3c(c2)OCO3)n1
Ordering criterion: Ki; begin with the maximum. Returns: the labels listed in the requested order. B, C, A
(B: 1430 nM, C: 505 nM, A: 77 nM)

P = N#Cc1ncc(F)c(N(Cc2ccc3c(c2)OCO3)CC2CC2)n1
Q = CC(C)=CCN(Cc1ccc2c(c1)OCO2)c1nc(C#N)ncc1F
Task for the reader: decide whether P or Q has the larger Ki. Write down the label of the entry you select. Q
(Q: 1010 nM, P: 77 nM)

====

# EXPERIMENTAL TARGET: Procathepsin L (Homo sapiens, UniProt P07711)
# ASSAY SUMMARY: Inhibition of human Cathepsin L by fluorescence assay based Cheng-Prusoff equation analysis
ASSAY ENDPOINT: Ki (nM)

Examples with their reported Ki follow.
| SMILES CODE | ASSAY RESULT |
| --- | --- |
| N#Cc1ncc(F)c(N(CCOc2ccc3ccccc3c2)Cc2ccc3c(c2)OCO3)n1 | 123 |
| CSc1cccc(N(Cc2ccc3c(c2)OCO3)c2nc(C#N)ncc2F)c1 | 5100 |
| N#Cc1ncc(F)c(N(Cc2ccc3c(c2)OCO3)c2ccc(Oc3cccnc3)cc2)n1 | 1020 |
| N#Cc1ncc(F)c(N(Cc2ccc3c(c2)OCO3)c2ccc(F)cc2)n1 | 952 |
| COc1cccc(CCCN(Cc2ccc3c(c2)OCO3)c2nc(C#N)ncc2F)c1 | 30 |
| N#Cc1ncc(F)c(N(Cc2ccc3c(c2)OCO3)c2ccccc2)n1 | 1800 |
| N#Cc1ncc(F)c(N(Cc2ccc3c(c2)OCO3)CC2CCCC2)n1 | 12 |
| N#Cc1ncc(F)c(N(CCCc2noc(-c3ccccc3)n2)Cc2ccc3c(c2)OCO3)n1 | 91 |
| N#Cc1ncc(F)c(N(CCc2ccsc2)Cc2ccc3c(c2)OCO3)n1 | 671 |
| N#Cc1ncc(F)c(N(CCC2CCOCC2)Cc2ccc3c(c2)OCO3)n1 | 2790 |

1 = N#Cc1ncc(F)c(N(CCOc2ccc(Cl)cc2)Cc2ccc3c(c2)OCO3)n1
2 = Cc1nsc(N2CCC(N(Cc3ccc4c(c3)OCO4)c3nc(C#N)ncc3F)CC2)n1
3 = N#Cc1ncc(F)c(N(CCc2ccccn2)Cc2ccc3c(c2)OCO3)n1
Ascending sort, Ki. Returns: the labels listed in the requested order. 1, 2, 3

1 = N#Cc1cccc(CCN(Cc2ccc3c(c2)OCO3)c2nc(C#N)ncc2F)c1
2 = N#Cc1ncc(F)c(N(CCCc2ccc(Cl)cc2)Cc2ccc3c(c2)OCO3)n1
Hey, between 1 and 2 which has a smaller measured Ki? Write down the label of the entry you select. 2

Every entry's value here was drawn from ChEMBL document CHEMBL4007486.
